Record form. Attribute: pIC50. Fill in for each entry.
- System Name: Human immunodeficiency virus type 1 reverse transcriptase (Human immunodeficiency virus 1, UniProt Q72547, Y181C)
- Experimental Details: Inhibitory activity against HIV-1 Y181C Reverse transcriptase (RT)
Keep it numeric: pIC50 is minus log10 of the concentration in mol/L.

*Q* Look up pIC50: `CCN1c2ncccc2C(=O)N(C)c2ccc(-c3cnc[nH]3)nc21`
*A* 6.13

*Q* # get_value(readout='pIC50', item= `CCN1c2ncccc2C(=O)N(C)c2ccc(-c3ccccc3OC)nc21` )
*A* 5.60

*Q* Which measured pIC50 value corresponds to `CCN1c2ncccc2C(=O)N(C)c2ccc(-c3ncco3)nc21` ?
*A* 6.09

*Q* Given the entry `CCN1c2ncccc2C(=O)N(C)c2ccc(-n3cccc3)nc21` , report its measured pIC50.
*A* 6.68

*Q* Fill blank: measured pIC50 of the molecule `CN1C(=O)c2cccnc2N(C2CC2)c2nc(-c3cccnc3)ccc21` is ____.
*A* 6.36

*Q* If you can, please state the reported pIC50 value of `CCN1c2ncccc2C(=O)N(C)c2ccc(-c3cn[nH]c3)nc21` .
*A* 7.22

*Q* Recorded pIC50 of `CCN1c2ncccc2C(=O)N(C)c2ccc(N(C)C)nc21` , please.
*A* 6.11

*Q* For the molecule `CCN1c2ncccc2C(=O)N(C)c2ccc(-c3ccco3)nc21` , what pIC50 is on record?
*A* 6.80

*Q* Query (molecule): `CN1C(=O)c2cccnc2N(C2CC2)c2nc(Cl)ccc21` ; field requested: pIC50
*A* 6.04

*Q* Value lookup for pIC50; key = `CCN1c2ncccc2C(=O)N(C)c2ccc(-c3nccs3)nc21`
*A* 6.62

*Q* Find the recorded pIC50 belonging to `Cc1cc(Cl)nc2c1NC(=O)c1cccnc1N2C1CC1` and report it.
*A* 6.11

*Q* What value of measured pIC50 is listed for `CCN1c2ncccc2C(=O)N(C)c2ccc(OC)nc21` ?
*A* 6.22

*Q* # input molecule: `CCN1c2ncccc2C(=O)N(C)c2ccc(-c3cccc(O)c3)nc21` ; wanted: its pIC50
*A* 6.74

*Q* Any idea what its pIC50 is? The molecule is `CCN1c2ncccc2C(=O)N(C)c2ccc(-c3ccc(O)cc3)nc21`
*A* 6.57

*Q* Give the measured pIC50 of `CCN1c2ncccc2C(=O)N(C)c2ccc(-c3ccc(OC)nc3)nc21` .
*A* 5.52

*Q* Would you mind telling me what pIC50 value was observed for `C#Cc1ccc2c(n1)N(CC)c1ncccc1C(=O)N2C` ?
*A* 6.38

*Q* Using the record for `CCN1c2ncccc2C(=O)N(C)c2ccc(-c3cc[nH]n3)nc21` , report its pIC50.
*A* 6.54

*Q* Please look up its pIC50: `CCN1c2ncccc2C(=O)N(C)c2ccc(-c3cnco3)nc21`
*A* 6.25

*Q* Suppose we examine the molecule `CCN1c2ncccc2C(=O)N(C)c2ccc(/C=C/C(=O)OC)nc21` ; what pIC50 value has been reported?
*A* 6.17

---

- System Name: Human immunodeficiency virus type 1 reverse transcriptase (Human immunodeficiency virus 1, UniProt Q72547)
Consider the following compounds; for each one, report its log10 of IC50.
Hi team, quick reminder: these entries are log10 of IC50 (µM).

*Q* # get_value(readout='log10 of IC50', item= `CCN1c2ncccc2C(=O)Nc2c(C)cc(Cl)nc21` )
*A* -2.00

*Q* What value of log10 of IC50 has been recorded for this entry: `CCN1c2ncccc2C(=O)N(C)c2ccc(-c3cc[nH]n3)nc21`
*A* -0.41

*Q* Which log10 of IC50 value belongs to `CN1C(=O)c2cccnc2N(C2CC2)c2nc(-c3ccncc3)ccc21` ?
*A* -0.82

*Q* State the recorded log10 of IC50 for this entry: `CCN1c2ncccc2C(=O)N(C)c2ccc(-c3ccc(O)nc3)nc21`
*A* 0.04

*Q* Consider the compound `CCN1c2ncccc2C(=O)Nc2c(C)cc(N(C)CCO)nc21` and give its measured log10 of IC50.
*A* -2.00

*Q* Any idea what its log10 of IC50 is? The compound is `CCN1c2ncccc2C(=O)N(C)c2ccc(-c3ccc(N)cc3)nc21`
*A* -1.40

*Q* Item `CCN1c2ncccc2C(=O)Nc2c(C)cc(N3CCSCC3)nc21` has what recorded log10 of IC50?
*A* -0.82

*Q* Name the reported log10 of IC50 value associated with the compound `CCN1c2ncccc2C(=O)N(C)c2ccc(-c3cn[nH]c3)nc21`
*A* -1.70

*Q* Record request: log10 of IC50 value, item `CCN1c2ncccc2C(=O)N(C)c2ccc(-c3ccc(O)cc3)nc21`
*A* -1.15

*Q* For the compound `CCN1c2ncccc2C(=O)N(C)c2ccc(-c3cc[nH]c3)nc21` , what log10 of IC50 is on record?
*A* -1.52

*Q* Please look up its log10 of IC50: `CCN1c2ncccc2C(=O)N(C)c2ccc(-c3ccoc3)nc21`
*A* -1.40

*Q* Given the compound `CCN1c2ncccc2C(=O)N(C)c2ccc(-c3cccc(O)c3)nc21` , what is its reported log10 of IC50?
*A* -1.00

*Q* Which log10 of IC50 is listed for `CCN1c2ncccc2C(=O)N(C)c2ccc(NC)nc21` ?
*A* -0.72

*Q* // lookup log10 of IC50 for `CCN1c2ncccc2C(=O)N(C)c2ccc(/C=C/C(N)=O)nc21`
*A* -0.60

*Q* Please look up its log10 of IC50: `CCN1c2ncccc2C(=O)N(C)c2ccc(N3CCOCC3)nc21`
*A* -0.40

*Q* Data request, read-out log10 of IC50, for `CCN1c2ncccc2C(=O)N(C)c2ccc(N3CC=CC3)nc21`
*A* -1.52

*Q* Could you tell me which log10 of IC50 is on file for `CCN1c2ncccc2C(=O)N(C)c2ccc(-c3ccc[nH]3)nc21` ?
*A* -1.15

*Q* // lookup log10 of IC50 for `Cc1cc(Cl)nc2c1NC(=O)c1cccnc1N2C1CC1`
*A* -1.70

*Q* For `CCN1c2ncccc2C(=O)N(C)c2ccc(/C=C/C(=O)OC)nc21` , what is its reported log10 of IC50?
*A* -0.74

*Q* Reported log10 of IC50 for `CCN1c2ncccc2C(=O)Nc2c(C)ccnc21` : what is it?
*A* -1.40

*Q* Need log10 of IC50 of `CCN1c2ncccc2C(=O)N(C)c2ccc(-c3ncc[nH]3)nc21` , thanks.
*A* -0.89

*Q* // log10 of IC50 lookup, key: `CCN1c2ncccc2C(=O)Nc2c(C)cc(F)nc21`
*A* -1.70

*Q* Tell me the measured log10 of IC50 of `CCN1c2ncccc2C(=O)Nc2c(C)cc(NCCCO)nc21` , please.
*A* -1.05

---

For each of the molecules below, state its pIC50.
- System Name: Human immunodeficiency virus type 1 reverse transcriptase (Human immunodeficiency virus 1, UniProt Q72547, E138K)
- Experimental Details: Inhibitory concentration against mutant reverse transcriptase of E138K was determined which is in turn resistant to TSAO
API: returns pIC50 as number; meaning -log10 of concentration in mol/L.

*Q* So what's the measured pIC50 for this one? `CCN1c2ncccc2C(=O)N(C)c2ccc(-c3ccc(N)cc3)nc21`
*A* 7.22

*Q* Which pIC50 value is on record for `CCN1c2ncccc2C(=O)N(C)c2ccc(-c3cn[nH]c3)nc21` ?
*A* 7.30

*Q* Reported pIC50 for `CCN1c2ncccc2C(=O)N(C)c2ccc(-c3ccc(O)cc3)nc21` : what is it?
*A* 7.22

*Q* Need pIC50 of `CCN1c2ncccc2C(=O)N(C)c2ccc(-c3cc[nH]c3)nc21` , thanks.
*A* 7.15

*Q* Entry under review: `CCN1c2ncccc2C(=O)N(C)c2ccc(-c3ccc(N)nc3)nc21` . Reported pIC50?
*A* 7.70

*Q* Which pIC50 is listed for `CN1C(=O)c2cccnc2N(C2CC2)c2nc(-c3cn[nH]c3)ccc21` ?
*A* 6.34

*Q* Reported pIC50, molecule `CCN1c2ncccc2C(=O)N(C)c2ccc(Cl)nc21` : ____
*A* 6.92

---

Record form. Attribute: pIC50. Fill in for each entry.
Keep it numeric: pIC50 is minus log10 of the concentration in mol/L.

*Q* State its pIC50 on Human immunodeficiency virus type 1 reverse transcriptase (Human immunodeficiency virus 1): `CCN1c2ncccc2C(=O)N(C)c2ccc(-c3cccs3)nc21`
*A* 6.85

*Q* Find the measured pIC50: item `CCN1c2ncccc2C(=O)Nc2c(C)cc(NCCO)nc21` , target or system Human immunodeficiency virus type 1 reverse transcriptase (Human immunodeficiency virus 1).
*A* 7.05

*Q* Short answer please: pIC50, Human immunodeficiency virus type 1 reverse transcriptase (Human immunodeficiency virus 1), entry `CCN1c2ncccc2C(=O)N(C)c2ccc(-c3cncs3)nc21`
*A* 6.42

*Q* State its pIC50 on Human immunodeficiency virus type 1 reverse transcriptase (Human immunodeficiency virus 1): `CCN1c2ncccc2C(=O)N(C)c2ccc(-c3ccc(N)nc3)nc21`
*A* 7.30
